Test: inhibitors of hydroxyurea-induced Chk1 phosphorylation, primary screen, imaging, HeLa, phospho-Chk1 nuclear intensity (AID 1187); also: test concentration not given here
Settings: hydroxyurea-induced phospho-Chk1 immunofluorescence imaging, higher = more signal
Please go through the items and note down their z-score.
Just the number, please, no unit attached.

Can you look up the measured z-score of C=C(CCCC)C(=O)CC[C@@H](OC(C)=O)c1ccc(OCCO)cc1 for me?
-0.266

Can you look up the measured z-score of COc1ccc(CCNC(=O)[C@@H]2c3ccccc3C(=O)N(Cc3cc(F)cc(C(F)(F)F)c3)[C@H]2c2ccc(CO)cc2)cc1 for me?
0.275

Can you look up the measured z-score of COc1ccc(NN2C(C(O)c3ccccc3)C=CC3C(=O)N(C4CCCCC4)C(=O)C32)cc1 (configuration not stated) for me?
0.711

Can you look up the measured z-score of [N-]=[N+]=NCc1ccccc1C[C@@]1(C(N)=O)N=C(c2ccc(OCCCO)cc2)O[C@@H]1c1ccccc1N=[N+]=[N-] for me?
1.02

Can you look up the measured z-score of OCCCc1cc[n+](Cc2cc3c(cc2Br)OCO3)cc1 for me?
0.0561

Can you look up the measured z-score of COC(=O)[C@@]1(Cc2ccc(F)cc2)[C@H]2c3cc(C(=O)N4CCCC4)n(C[C@H](O)CO)c3C[C@H]2CN1C(=O)c1ccccc1 for me?
0.439

Can you look up the measured z-score of COCCOC(=O)N1C(=O)[C@@]2(c3cc(C#CCNC(N)=O)ccc31)[C@H](c1ccc(O)cc1)N1[C@H](c3ccccc3)[C@H](c3ccccc3)OC(=O)[C@H]1[C@@H]2C(=O)N1CCc2cc(OC)c(OC)cc2C1 for me?
-0.0878

====

Please go through the items and note down their composite z-score.
Test system: Wnt5a (protein binding on small-molecule microarray)
Assay: Wnt5a binders on small-molecule microarray, primary screen, biophysical, 635/667 nm fluorescence (AID 1142);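 also: fluorescence read at 667 nm with signal to noise per printed feature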
Conditions: 635 nm fluorescence, higher = more signal
Just the number, please, no unit attached.

Can you look up the measured composite z-score of O=C1NC(=O)C2C1C=CC(C(O)c1ccc(F)cc1)N2Nc1ccc(Cl)cc1Cl (configuration not stated) for me?
-0.166

Can you look up the measured composite z-score of CCOC(=O)C[C@H]1[C@H](OC(=O)c2ccc(-c3ccccc3)cc2)[C@@H](NC(=O)c2ccc(-c3ccccc3)cc2)c2cc(OCCCO)ccc2N1C(=O)c1ccccc1 for me?
0.131

Can you look up the measured composite z-score of C=CCNC(=O)[C@H]1[C@@H]2C(=O)O[C@@H](c3ccccc3)[C@@H](c3ccccc3)N2[C@@H](c2ccc(OCCO)cc2)[C@]12C(=O)N(C(=O)OCCOC)c1ccc(C#CCC(C(=O)OC)C(=O)OC)cc12 for me?
1.12

Can you look up the measured composite z-score of CCCCCCc1nc(-c2ccc(OC)nc2)c(C)c2c1[Si](C(C)C)(C(C)C)OC2 for me?
-0.0701

Can you look up the measured composite z-score of C#CCN(C(=O)OC(C)(C)C)[C@H](CO)c1ccccc1 for me?
-0.1

Can you look up the measured composite z-score of C=CC[C@]12N=C(c3ccc(OCCCO)cc3)O[C@H]1c1ccccc1N(CCC)C2=O for me?
0.587

Can you look up the measured composite z-score of COc1cc(CO)cc(I)c1O[C@H]1C=C(C(=O)NCCO)C[C@@H](N(CCN2CCOCC2)C(=O)C2CCCO2)[C@@H]1O (some centres not stated) for me?
-0.103

====

Please go through the items and note down their z-score.
Assay: osmotic lysis modulators in infected erythrocytes, primary screen, PSAC antagonist project, cell-based, P. falciparum Indochina, OD700, 3 h (AID 1156)
Settings: higher = more signal, called active from +8 up or from −8 down
Activity calls are given as the source filed them.

Can you look up the measured z-score of O=C1O[C@H](c2ccccc2)[C@H](c2ccccc2)N2[C@H]1[C@@H](C(=O)N1CCCCCCC1)[C@]1(C(=O)Nc3ccc(C#CCCO)cc31)[C@H]2c1ccc(O)cc1 for me?
0.0261 (inactive)

Can you look up the measured z-score of COC(=O)[C@@]1(Cc2ccc(F)cc2)[C@H]2c3cc(C(=O)N4CCCC4)n(C[C@H](O)CO)c3C[C@H]2CN1C(=O)c1ccccc1 for me?
0.396 (inactive)

Can you look up the measured z-score of COc1ccc([Si](C)(C)[C@H]2[C@H](CC(=O)N3CCC[C@H]3CO)O[C@@]3(C(=O)N(Cc4cccc(N5CCCCC5=O)c4)c4ccccc43)[C@@H]2C)cc1 for me?
0.318 (inactive)

Can you look up the measured z-score of C=CCNC(=O)[C@@H]1[C@H]2C(=O)O[C@H](c3ccccc3)[C@H](c3ccccc3)N2[C@H](c2ccc(OCCO)cc2)[C@@]12C(=O)Nc1ccc(C#CC3=CCCCC3)cc12 for me?
-0.306 (inactive)

Can you look up the measured z-score of [N-]=[N+]=NCc1ccccc1[C@H]1OC(c2ccc(OCCCO)cc2)=N[C@@]1(Cc1ccccc1N=[N+]=[N-])C(N)=O for me?
1.46 (inactive)

Can you look up the measured z-score of C=CCNC(=O)[C@@H]1[C@H]2C(=O)O[C@H](c3ccccc3)[C@H](c3ccccc3)N2[C@H](c2ccc(OCCO)cc2)[C@@]12C(=O)Nc1ccc(C#CCNC(N)=O)cc12 for me?
0.422 (inactive)

====

Please go through the items and note down their z-score.
Assay: A549 cell viability effects, profiling panel, calcein-AM fluorescence, 48 h, basal (AID 1162); also: test concentration not given here
Settings: higher = more signal
Just the number, please, no unit attached.

Can you look up the measured z-score of CCOC(=O)C[C@H]1[C@H](OC(=O)c2cc3ccccc3oc2=O)[C@@H](NC(=O)c2ccc(-c3ccccc3)cc2)c2cc(OCCCO)ccc2N1C(=O)Cc1ccc(OC)cc1 for me?
-0.382

Can you look up the measured z-score of O=C1NC(=O)C2C1C=CC(C(O)C1CCCCC1)N2Nc1ccccn1 (stereo not drawn) for me?
-1.05

Can you look up the measured z-score of C=CCN1C(=O)[C@@]2(O[C@@H](CCO)[C@H]([Si](C)(C)c3ccc(OC)cc3)[C@H]2C)c2cc(N3CCCCC3=O)ccc21 for me?
-0.816

Can you look up the measured z-score of COC(=O)[C@@]1(Cc2ccc(OC)cc2)[C@@H]2[C@@H](CC(=O)[C@H]2CC(=O)C(=O)N(C)C)CN1C(=O)c1ccccc1 for me?
-1.45

Can you look up the measured z-score of COc1cc(CO)cc(I)c1O[C@H]1C=C(C(=O)NCCO)C[C@@H](N(CCN2CCOCC2)C(=O)C2CCCO2)[C@@H]1O (stereo partly drawn) for me?
1.51

Can you look up the measured z-score of CCCCCCCCCCC(O)C1C=CC2C(=O)N(C)C(=O)C2N1Nc1ccccc1 (stereo not drawn) for me?
-2.46

Can you look up the measured z-score of O=C(N1CCOCC1)[C@]1(CCS(=O)(=O)c2ccccc2)N=C(c2ccc(OCCCO)cc2)O[C@@H]1c1ccccc1 for me?
0.569

Can you look up the measured z-score of CC(C)C(=C=CC[C@H](O)c1cccc(OCCO)c1)C[C@H](O)c1ccccn1 for me?
1.65

====

Molecular target: Fibroblast growth factor 10 (Homo sapiens) (UniProt O15520)
Sequence (O15520 whole entry, looked up): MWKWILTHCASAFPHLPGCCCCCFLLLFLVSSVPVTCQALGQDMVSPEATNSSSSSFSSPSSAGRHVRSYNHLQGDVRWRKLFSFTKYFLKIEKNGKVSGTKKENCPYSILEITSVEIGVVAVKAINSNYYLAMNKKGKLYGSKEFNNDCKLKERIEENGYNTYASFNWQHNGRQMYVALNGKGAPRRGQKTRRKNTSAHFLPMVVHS
Assay: FGF10 binders on small-molecule microarrays, primary screen, biochemical, small-molecule microarray, 635 nm fluorescence (AID 1102)
Settings: FGF10 binding, fluorescence 635 nm, higher = more signal
Decide by composite z-score: equal to or exceeding 0.9 means class 1, less means class 0.

Say whether COC(=O)[C@@]1(Cc2ccc(F)cc2)[C@H]2c3cc(C(=O)N(C)C)n(Cc4cccc5ccccc45)c3C[C@H]2CN1C(=O)c1ccccc1 shows composite z-score of 0.9 or more.
class 1

Say whether CC(=O)NCCCC[C@@H]1NC(=O)[C@H]2C[C@@H](C(=O)NCCCCCN)[C@@H](c3ccc(O)cc3)N2C1=O shows composite z-score of 0.9 or more.
class 0

Say whether C=C(CCCC)C(=O)CC[C@@H](OC(C)=O)c1ccc(OCCO)cc1 shows composite z-score of 0.9 or more.
class 1

Say whether C[C@@]1([C@@H](NS(=O)(=O)c2cccc3cccnc23)c2ccc(-c3ccccc3)cc2)C[C@H]1C1CCCCC1 shows composite z-score of 0.9 or more.
class 0

Say whether C[C@]1(C(=O)NCC(F)(F)F)c2ccccc2C(=O)N(Cc2cc(C(F)(F)F)cc(C(F)(F)F)c2)[C@H]1c1ccc(CO)cc1 shows composite z-score of 0.9 or more.
class 0

Say whether C=C(C(=O)CC[C@@H](OC(=O)c1ccccc1-c1ccccc1C(=O)O)c1cccc(OCCO)c1)C(C)C shows composite z-score of 0.9 or more.
class 1

Origin of the recorded values: PubChem BioAssay
